- SYSTEM: T1, human CD3e/d complex on cells transiently transfected with pOPT-CD3e/d-hum-mix (human, UniProt P07766 23-126; P04234 22-171)
- T1 construct: Tagged screening constructs
- T1 sequence (P07766 23-126 limits assumed, chain 1 of 2): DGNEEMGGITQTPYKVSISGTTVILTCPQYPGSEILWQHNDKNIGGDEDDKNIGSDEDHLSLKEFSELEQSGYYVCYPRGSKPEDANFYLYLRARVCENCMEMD
- T1 sequence (P04234 22-171 limits assumed, chain 2 of 2): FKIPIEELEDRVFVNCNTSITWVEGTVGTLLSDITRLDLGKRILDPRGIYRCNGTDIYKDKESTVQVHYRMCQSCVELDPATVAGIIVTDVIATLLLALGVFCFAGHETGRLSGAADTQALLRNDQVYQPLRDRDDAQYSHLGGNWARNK
- TEST METHOD NOTES: CELISA, hybridoma supernatant
// values below are reported % positive
EXPERIMENTAL ENDPOINT: % positive (%)

{"BINDER": "BLX-3G8 (antibody, V domains shown, OmniRat hybridoma supernatant: human V regions on rat constant regions; also called V regions cloned as CD3B317 (CD3H223/CD3L124)) VH: QVQLQQSGPGLVKPSQTLSLTCAISGDSVFNNNAAWTWIRQSPSRGLEWLGRTYYRSKWLYDYAVSVKSRITVNPDTSRNQFTLQLKSVTPEDTALYYCSRGYSSSFDYWGQGTLVTVSS VL: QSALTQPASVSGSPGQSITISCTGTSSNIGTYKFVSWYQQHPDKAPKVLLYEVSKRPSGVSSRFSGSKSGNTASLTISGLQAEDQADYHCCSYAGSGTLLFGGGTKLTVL", "QUANTITATIVE RESULT": 111}
{"BINDER": "BLX-2E9 (antibody, V domains shown, OmniRat hybridoma supernatant: human V regions on rat constant regions; also called V regions cloned as CD3B315 (CD3H221/CD3L124)) VH: QVQLQQSGPGLVKPSQTLSLTCAISGDSVFNNNGAWSWIRQSPSRGLEWLGRTYYRSKWLYDYAVSVKSRITVNPDTSRNQFTLQLNSVTPEDTALYYCARGYSSSFDYWGQGTLVTVSS VL: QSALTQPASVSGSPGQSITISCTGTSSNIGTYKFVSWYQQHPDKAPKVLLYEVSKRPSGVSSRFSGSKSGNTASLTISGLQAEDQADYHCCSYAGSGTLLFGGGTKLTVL", "QUANTITATIVE RESULT": 127}
{"BINDER": "BLX-1F8 (antibody, V domains shown, OmniRat hybridoma supernatant: human V regions on rat constant regions; also called V regions cloned as CD3B314 (CD3H220/CD3L126)) VH: QVQLQQSGPGLVKPSQTLSLTCAISGDSVFNNNAAWSWIRQSPSRGLEWLGRTYYRSKWLYDYAVSVKSRITVNPDTSRNQFTLQLKSVTPEDTALYYCSRGYSSSFDYWGQGTLVTVSS VL: QSALTQPASVSGSPGQSITISCTGTSSDIGTYKFVSWYQQHPDKAPKVLLYEVSKRPSGVSSRFSGSKSDNTASLTISGLQAEDQADYHCCSYAGSGTLLFGGGTKLTVL", "QUANTITATIVE RESULT": 101}
{"BINDER": "BLW-2B4 (antibody, V domains shown, OmniRat hybridoma supernatant: human V regions on rat constant regions; also called V regions cloned as CD3B311 (CD3H218/CD3L123)) VH: QVQLQQSGPGLVKPSQTLSLTCAISGDSVFNNNAAWSWIRQSPSRGLEWLGRTYYRSKWLYDYAVSVKSRITVNPDTSRNQFTLQLNSVTPEDTALYYCVRGYSSSFDYWGQGTLVTVSS VL: QSALTQPASVSGSPGQSITISCTGTSRDIGTYKFVSWYQQHPDKAPKVLLYEVNKRPSGVSSRFSGSKSGNTASLTISGLQAEDQADYHCCSYAGSGTLLFGGGTKLTVL", "QUANTITATIVE RESULT": 101}

Data credit: patent US20230322924A1
